# measured target: Androgen receptor (Homo sapiens)
# assay summary: qHTS assay to identify small molecule agonists of the androgen receptor (AR) signaling pathway in the presence of an antagonist (AID 1259381); further: on the % scale 0 is the no-effect control and ±100 the full control effect; nearly all actives have a fitted effect of over 15% in size
# condition summary: MDA-kb2 MMTV-luciferase, AR agonist + nilutamide, 16 h; series mostly up to 92.4 µM
The source made the active and inactive calls. The call rests on the fitted dose curve.
quantity kind: activation

Worked cases, activation given:
C#CC(O)(C=CCl)CC (centres undefined) | inactive
C[CH2][Hg][S]c1ccccc1C(=O)O | inactive
CCCCCBr | inactive
CC(=O)NNc1ccccc1 | inactive
COC(=O)C1(O)c2ccccc2-c2ccccc21 | inactive

Query block: Tell me its activation given "CCC1(CCC(C)C)C(=O)NC(=O)NC1=O" as the entry.
Result block: inactive

Query block: Return reported activation. Input molecule: CC(Cl)C(=O)O (centres undefined)
Result block: inactive

Query block: Fill in activation for record Nc1ccccc1C(=O)OCC(O)CO (centres undefined)
Result block: inactive

Query block: Return activation (reported value) for this molecule: "Nc1c(Br)cc(Br)c2c1C(=O)c1ccccc1C2=O"
Result block: 0.208% [at 19 µM] (inactive)

Query block: Name the recorded activation of the molecule listed here: O=P(OCC(Br)CBr)(OCC(Br)CBr)OCC(Br)CBr (centres undefined)
Result block: inactive

Query block: Input "O=C(O)COc1cc(Cl)c(Cl)cc1Cl" , output reported activation.
Result block: inactive

Query block: Using known records, supply activation for O=C(NCNC(=O)NC1C(=O)NC(=O)N1CO)NC1C(=O)NC(=O)N1CO (centres undefined)
Result block: inactive

Query block: Give the reported value of activation for this record: "CN1CC[C@]23c4c5ccc(O)c4O[C@H]2[C@@H](O)C=C[C@H]3[C@H]1C5"
Result block: inactive

Query block: Give a short answer stating reported activation for "ClCc1ccccc1Cl" .
Result block: inactive

---

# assay summary: qHTS assay to identify small molecule agonists of the estrogen related receptor (ERR) signaling pathway from Tox21 library (AID 1224849); further: on the % scale 0 is the no-effect control and ±100 the full control effect; nearly all actives have a fitted effect of over 15% in size
# condition summary: ERR reporter cell line, ONE-Glo luciferase, 18 h; at 42.5 µM (top of the series)
quantity kind: activity change, positive = activation (%)
Form entry: value (%) — number only.

CC(C)(C)NCC(O)c1cc(Cl)c(N)c(C(F)(F)F)c1 (stereo not given) | -0.267
CC(C)(C)NCC(O)c1ccccc1Cl (stereo not given) | 4.93
Cc1cccc(C)c1NC1=NCCCS1 | 4.81
O=C(O)c1ccc(=O)[nH]c1 | 5.02

Turning now to a further record.
Query block: Please supply the value of reported activity change, positive = activation for the item "CCOC(C(=O)OCCN(C)C)(c1ccccc1)c1ccccc1"
Result block: -1.78

---

# assay summary: qHTS assay to identify small molecule HDAC inhibitors - cell viability counter screen (AID 1259365); further: on the % scale 0 is the no-effect control and ±100 the full control effect; nearly all actives have a fitted effect of over 50% in size
# condition summary: HCT-116 viability, CellTiter-Glo ATP luminescence, 2 h; series mostly up to 92.4 µM
# Text: U.S. Tox21 Program National Center for Advancing Translational Sciences [NCATS] NIH Chemical Genomics Center [NCGC] U.S. Environmental Protection Agency [EPA] National Institutes of Environmental Health Sciences [NIEHS] National Toxicology Program [NTP] U.S. Food and Drug Administration [FDA] Tox21 Assay Overview: Histone deacetylases (HDACs) are a group of epigenetic enzymes that regulate gene expression by histone deacetylation. […]
Activity calls are given as the source filed them. Calls follow the shape of the dose curve; as a rule, active = well fitted cell-killing curve with a large enough effect in the repeat runs; inconclusive = weak or mixed curves, or effect the other way; inactive = flat fitted curve, though single readings scatter.
quantity kind: outcome

# count of solved cases: 5
C=CC(C)(CCC=C(C)C)OC(=O)c1ccccc1N (stereo unspecified) | inactive
NCCc1cc(O)c(O)cc1O | inactive
CCOC(=O)NC(O)C(Cl)(Cl)Cl (stereo unspecified) | inactive
Oc1cccc(Cl)c1 | inactive
C[C@H]1O[C@H](OC2[C@@H](O)[C@@H](O)C(O)[C@H](O)[C@H]2O)[C@@H](N)C[C@@H]1N=C(N)C(=O)O (stereo partly specified) | inactive

Query block: Consider the compound "C=CCSSCC=C" and give its recorded outcome.
Result block: inactive

Query block: Note outcome for the compound shown: "NP(N)(=O)NC(=O)c1ccc(F)cc1"
Result block: inactive

---

# measured target: Progesterone receptor (Homo sapiens)
# assay summary: qHTS assay to identify small molecule antagonists of the progesterone receptor (PR) signaling pathway (AID 1346795)
# condition summary: PR-UAS-bla HEK293T, beta-lactamase FRET ratio, 16 h; series mostly up to 92.4 µM
Results filed as inconclusive are left out. The source made the active and inactive calls. Calls come from the whole dose curve; as a rule, active = well fitted inhibition curve with a large enough effect in the signal ratio in the repeat runs (not every such curve was filed as active); inconclusive = weak or mixed curves; inactive = flat fitted curve, though single readings scatter; the % refers to the signal ratio.
Pick one and only one: active, inactive

C[N+](C)(C)CCOC(=O)C(O)(c1ccccc1)c1ccccc1 | inactive
COCc1cnc(C2=NC(C)(C(C)C)C(=O)N2)c(C(=O)O)c1 (centres undefined) | inactive
C[C@H]1[C@@H]2Cc3ccc(O)cc3[C@@]1(C)CCN2C | inactive
CN[C@@H](C)[C@H](O)c1ccccc1 | inactive
Nc1ccc2c(c1)Cc1ccccc1-2 | active
COc1ccc2c(c1OC)C(=O)O[C@H]2[C@@H]1c2cc3c(cc2CCN1C)OCO3 | inactive
CC(C)c1ccc(NC(=O)N(C)C)cc1 | inactive
CC(CC(C(N)=O)(c1ccccc1)c1ccccc1)N(C)C (centres undefined) | inactive

Query block: Tell me the assay call for "Cc1ccc2c(C)cccc2c1" please.
Result block: inactive

Query block: # fetch the recorded call for "Nc1cc(Cl)cc(C(=O)O)c1Cl" here
Result block: inactive

Query block: Tell me the recorded outcome of this test for "O=C(Cl)OCCOCCOC(=O)Cl" .
Result block: inactive

Query block: Hi, do you know how O=C(O)C(O)C(O)C(=O)O (centres undefined) came out in this test?
Result block: inactive

Query block: What did the test return for CCCCC(CC)CO[N+](=O)[O-] (centres undefined) ?
Result block: inactive

Query block: In this assay, the call recorded for "C=CC(=O)NC(C)(C)CC(C)=O" was what?
Result block: inactive

---

# assay summary: qHTS assay for identifying genotoxic compounds that show differential cytotoxicity against isogenic chicken DT40 cell lines with known DNA damage response pathways - wild type cell line (AID 743012); further: nearly all actives have a fitted effect of over 60% in size
# condition summary: DT40 wild type chicken cells viability, CellTiter-Glo, 40 h; series mostly up to 68.4 µM
Results filed as inconclusive are left out. Active and inactive are the calls of the source. Calls follow the shape of the dose curve; as a rule, active = well fitted cell-killing curve with a large enough effect in the repeat runs; inconclusive = weak or mixed curves, or effect the other way; inactive = no such curve, though single readings can be large or run the other way.
Answer with one of the outcomes active, inactive

Would you please look over these solved cases?
CCC1CCC(=O)O1 (stereo not given) | inactive
Cc1nnc(-c2ccccc2)c(=O)n1N | inactive
C[N+]1(CCC(C(N)=O)(c2ccccc2)c2ccccc2)CCCCC1 | inactive
C[N+](C)(C)CCOC(=O)C(O)(c1ccccc1)c1ccccc1 | inactive

Could you now consider this next molecule?
Query block: In this assay, the call recorded for "C[C@H](N)[C@H](O)c1ccc(O)c(O)c1" was what?
Result block: active

---

# assay summary: qHTS assay to identify small molecule agonists of the endoplasmic reticulum stress response signaling pathway (AID 1159516); further: on the % scale 0 is the no-effect control and ±100 the full control effect
# condition summary: ESRE-bla HeLa, ER stress beta-lactamase reporter, 5 h; series mostly up to 61 µM
Inconclusive results are not listed. Activity calls are given as the source filed them. The call rests on the fitted dose curve; in most records, active means well fitted activation curve with a large enough effect in the signal ratio in the repeat runs (not every such curve was filed as active); inconclusive means weak or mixed curves, or effect the other way; inactive means flat fitted curve, though single readings scatter; the % refers to the signal ratio.
quantity kind: outcome

Worked cases, outcome given:
CCCC[N+](CCCC)(CCCC)CCCC | inactive
CC(=O)OC(c1ccccc1)C(Cl)(Cl)Cl (stereo not drawn) | inactive
CC(C)(C)c1ccc(CCOc2ncnc3ccccc23)cc1 | inactive
C=CCOCC1CO1 (stereo not drawn) | inactive
CCCC1CCCCN1 (stereo not drawn) | inactive
CC(C)OC(=O)Cc1ccccc1 | inactive
O=C(Cc1ccccc1)c1ccccc1 | inactive

Query block: Item C=CC(C)(CCC=C(C)C)OC(=O)c1ccccc1N (stereo not drawn) : provide outcome
Result block: inactive

---

# assay summary: qHTS assay for small molecule agonists of the p53 signaling pathway - cell viability (AID 651633);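 further: p53RE-bla HCT reporter cells with a stable beta-lactamase p53 reporter; on the % scale 0 is the no-effect control and ±100 the full control effect; nearly all actives have a fitted effect of over 30% in size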
# condition summary: p53RE-bla HCT-116 viability, ATP luminescence, 16 h; series mostly up to 83.3 µM
Records with an inconclusive call do not appear. The source made the active and inactive calls. Calls come from the whole dose curve.
quantity kind: outcome

Use these answered entries as a reference point.
O=C(NCNC(=O)NC1C(=O)NC(=O)N1CO)NC1C(=O)NC(=O)N1CO (stereo not drawn) | inactive
CCOC(=O)c1cncn1C(C)c1ccccc1 (stereo not drawn) | inactive
C1CCNCC1 | inactive
CCCCC(CC)COC(=O)c1c(Br)c(Br)c(Br)c(Br)c1C(=O)OCC(CC)CCCC (stereo not drawn) | inactive
OC[P+](CO)(CO)CO | inactive
CCC1(C2=NCCN2)Cc2ccccc2O1 (stereo not drawn) | inactive

Query compound follows.
Query block: Give the measured outcome for "Nc1cccc2ccccc12"
Result block: inactive

---

# measured target: Cytochrome P450 2C9 (Homo sapiens)
# assay summary: Cytochrome P450 Family 2 Subfamily C Member 9 (CYP2C9) small molecule antagonists: luciferase reporter qHTS assay (AID 1671198); further: nearly all actives have a fitted effect of over 50% in size
# condition summary: P450-Glo CYP2C9 enzyme assay, luciferin luminescence; series mostly up to 115 µM
Results filed as inconclusive are left out. Calls of active or inactive are those of the source. The call rests on the fitted dose curve; in most records, active means well fitted inhibition curve with a large enough effect in the repeat runs; inconclusive means weak or mixed curves; inactive means no such curve, though single readings can be large or run the other way.
Please answer using one outcome listed in t for active, f for inactive

Query block: // outcome(item) with item = CCCSP(=S)(OCC)Oc1ccc(SC)cc1 (stereo not given)
Result block: t

Query block: Entry CC(C)C1(C)N=C(c2ncccc2C(=O)O)NC1=O (stereo not given) : call = ?
Result block: f

Query block: Short answer needed: outcome of this test for CCOC(=O)c1cncn1C(C)c1ccccc1 (stereo not given) ?
Result block: t
